Where these numbers come from: ChEMBL document CHEMBL1201862

tested on: T47D; assay: NCI tumour cell line growth inhibition, 48 h
Active and inactive are the calls of the source. No stated cut-off is given here; in the data, active = GI50 up to about 1.1 µM and inactive = higher.
Possible outcomes: TRUE for active, FALSE for inactive

{"MOLECULE": "C=C1C(=O)OC2/C=C(\\COC(C)=O)CCC(OC(C)=O)C3=CC(OC3=O)C12 (stereo unspecified)", "SYSTEM_UNDER_TEST": "T47D", "CLASSIFICATION": "FALSE"}
{"MOLECULE": "CC1CCCN(CC(O)CN2CCCc3ccccc32)C1 (stereo unspecified)", "SYSTEM_UNDER_TEST": "T47D", "CLASSIFICATION": "FALSE"}
{"MOLECULE": "Nc1nn2c(C(Br)Br)cc(C(Br)Br)nc2c1[N+](=O)[O-]", "SYSTEM_UNDER_TEST": "T47D", "CLASSIFICATION": "TRUE"}
{"MOLECULE": "CC1(C)C/C(=N/O)c2c(nc3ccc4ccccc4c3c2-c2ccc(Cl)cc2)C1", "SYSTEM_UNDER_TEST": "T47D", "CLASSIFICATION": "FALSE"}
{"MOLECULE": "C=C[C@@]1(O)CCCC[C@@H]1CC(Sc1ccccc1)Sc1ccccc1", "SYSTEM_UNDER_TEST": "T47D", "CLASSIFICATION": "FALSE"}
{"MOLECULE": "CC(=O)/C(=C/N1CC(=O)NC1=S)C(=O)Nc1ccccc1C", "SYSTEM_UNDER_TEST": "T47D", "CLASSIFICATION": "FALSE"}
{"MOLECULE": "O=[N+]([O-])C(/C(Cl)=C(\\Cl)Br)=C(/Cl)SCc1ccccc1", "SYSTEM_UNDER_TEST": "T47D", "CLASSIFICATION": "FALSE"}
{"MOLECULE": "COC(=O)C1(C)CCCC2(C)C3CCC4CC3(C=C4CO)CCC12 (stereo unspecified)", "SYSTEM_UNDER_TEST": "T47D", "CLASSIFICATION": "FALSE"}
{"MOLECULE": "COC(=O)C1C(=O)CC(C)(O)C(C(=O)OC)C1c1ccc(N(C)C)cc1 (stereo unspecified)", "SYSTEM_UNDER_TEST": "T47D", "CLASSIFICATION": "FALSE"}
{"MOLECULE": "CC(=O)OCC1OC(n2ncc(=O)[nH]c2=O)C(OC(C)=O)C1OC(C)=O (stereo unspecified)", "SYSTEM_UNDER_TEST": "T47D", "CLASSIFICATION": "FALSE"}
{"MOLECULE": "c1cc(-c2ncc(-c3ccc4c(c3)CCCO4)o2)ccn1", "SYSTEM_UNDER_TEST": "T47D", "CLASSIFICATION": "FALSE"}

* * *

tested on: M14; assay: NCI tumour cell line growth inhibition, 48 h
The source made the active and inactive calls. Cut-off read from the data, not from the text of the source: active = GI50 up to about 1.1 µM and inactive = higher.
Possible outcomes: YES (active), NO (inactive)

{"COMPOUND": "CN1CCN(CCCNN)CC1", "SYSTEM_UNDER_TEST": "M14", "CLASSIFICATION": "NO"}
{"COMPOUND": "COC/C=C\\[C@@]1(O)CCCC[C@@H]1CC(OC)OC", "SYSTEM_UNDER_TEST": "M14", "CLASSIFICATION": "NO"}
{"COMPOUND": "CCc1cccc2c3c([nH]c12)-c1ccccc1NC(=O)C3", "SYSTEM_UNDER_TEST": "M14", "CLASSIFICATION": "NO"}
{"COMPOUND": "CC(C(=O)O)C(C)(O)C(=O)O (configuration not stated)", "SYSTEM_UNDER_TEST": "M14", "CLASSIFICATION": "NO"}
{"COMPOUND": "CC(=O)c1ccc2c(c1)CC1(C2)Cc2ccccc2C1=O (configuration not stated)", "SYSTEM_UNDER_TEST": "M14", "CLASSIFICATION": "NO"}
{"COMPOUND": "CC1C(c2ccccc2)O[B-](F)(c2ccccc2)[NH+]1C (configuration not stated)", "SYSTEM_UNDER_TEST": "M14", "CLASSIFICATION": "NO"}
{"COMPOUND": "O=C1C(c2ccccc2)=C(c2ccccc2)C(c2ccccc2)/C1=C1\\C(=O)C(c2ccccc2)=C(c2ccccc2)C1c1ccccc1 (configuration not stated)", "SYSTEM_UNDER_TEST": "M14", "CLASSIFICATION": "NO"}
{"COMPOUND": "COc1cc2c3c(n(CCCNCCO)c(=O)c2cc1OC)-c1cc2c(cc1C3=O)OCO2", "SYSTEM_UNDER_TEST": "M14", "CLASSIFICATION": "YES"}
{"COMPOUND": "CCOC(=O)N(c1ccccc1)N(CC)C(=O)/C(C)=N/Nc1ccc([N+](=O)[O-])cc1", "SYSTEM_UNDER_TEST": "M14", "CLASSIFICATION": "NO"}
{"COMPOUND": "O=C(Nc1nccs1)NS(=O)(=O)n1cnc2ccccc21", "SYSTEM_UNDER_TEST": "M14", "CLASSIFICATION": "NO"}
{"COMPOUND": "C/C=C1\\C[C@@H]2C(OC)Nc3cc(O)c(OC)cc3C(=O)N2C1 (some centres not stated)", "SYSTEM_UNDER_TEST": "M14", "CLASSIFICATION": "YES"}
{"COMPOUND": "O=[N+]([O-])c1ccc2c(/N=N/c3ccc4ccccc4c3O)c(O)cc(S(=O)(=O)O)c2c1", "SYSTEM_UNDER_TEST": "M14", "CLASSIFICATION": "NO"}
{"COMPOUND": "CC(C)(C)OC/C=C(/CO)[C@@H]1C=C[C@H](O)C1", "SYSTEM_UNDER_TEST": "M14", "CLASSIFICATION": "NO"}
{"COMPOUND": "Oc1ccc(Br)cc1/C=N/c1ccc(/N=C/c2cc(Br)ccc2O)cc1", "SYSTEM_UNDER_TEST": "M14", "CLASSIFICATION": "NO"}
{"COMPOUND": "COc1cc(/C=C(\\C#N)C(N)=C(C#N)C#N)cc(O)c1O", "SYSTEM_UNDER_TEST": "M14", "CLASSIFICATION": "NO"}
{"COMPOUND": "CC(=O)OCC1OC(n2ncc(=O)[nH]c2=O)C(OC(C)=O)C1OC(C)=O (configuration not stated)", "SYSTEM_UNDER_TEST": "M14", "CLASSIFICATION": "NO"}
{"COMPOUND": "Cc1ccc2c(c1)C(=S)N1CSCC1c1nncn1-2 (configuration not stated)", "SYSTEM_UNDER_TEST": "M14", "CLASSIFICATION": "NO"}
{"COMPOUND": "COc1ccc2cc1Oc1ccc(cc1)CC1c3cc(OC)c(cc3CCN1C)Oc1c(OC)c(OC)cc3c1C(C2)N(C)CC3 (configuration not stated)", "SYSTEM_UNDER_TEST": "M14", "CLASSIFICATION": "NO"}
{"COMPOUND": "COc1ccc2o/c(=N\\c3ccc(F)cc3)c(C(N)=O)cc2c1", "SYSTEM_UNDER_TEST": "M14", "CLASSIFICATION": "NO"}
{"COMPOUND": "O=C1c2c(Br)sc(Br)c2[C@@H](O)[C@H]1O", "SYSTEM_UNDER_TEST": "M14", "CLASSIFICATION": "NO"}
{"COMPOUND": "Clc1ccc(-c2noc(CN3CCCCC3)n2)cc1", "SYSTEM_UNDER_TEST": "M14", "CLASSIFICATION": "NO"}
{"COMPOUND": "Nc1ccc2c(=O)cc(-c3ccc(Br)s3)[nH]c2n1", "SYSTEM_UNDER_TEST": "M14", "CLASSIFICATION": "NO"}
